molecular target: N-myristoylglycylpeptide synthetase (N-myristoyl transferase or NMT) (Saccharomyces cerevisiae, UniProt P14743); construct: endogenous in cells; host or cells: S. cerevisiae strain JR153; assay: Octapeptide substrate specificity / kinetic characterization with partially purified yeast myristoylating enzyme (Table II); type: biochemical
Sequence (P14743 whole entry): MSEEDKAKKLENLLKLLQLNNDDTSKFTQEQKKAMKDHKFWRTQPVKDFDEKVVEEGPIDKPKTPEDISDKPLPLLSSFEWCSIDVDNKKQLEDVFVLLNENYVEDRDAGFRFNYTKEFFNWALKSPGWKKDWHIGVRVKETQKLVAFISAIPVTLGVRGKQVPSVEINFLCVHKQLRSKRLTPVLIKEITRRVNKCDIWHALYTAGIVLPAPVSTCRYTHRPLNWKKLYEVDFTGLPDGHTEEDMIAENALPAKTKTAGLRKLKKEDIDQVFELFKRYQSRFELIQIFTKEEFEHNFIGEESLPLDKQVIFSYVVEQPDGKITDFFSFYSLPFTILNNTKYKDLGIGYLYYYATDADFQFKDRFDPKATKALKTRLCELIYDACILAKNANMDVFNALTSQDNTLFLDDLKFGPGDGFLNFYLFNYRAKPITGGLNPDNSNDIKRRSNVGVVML
Where no end group is shown, it is not given here.
Parameter Ki: see the listing below.
Readout Name: Ki

>>> print(df.to_string())
                                  substance  readout_name  endpoint_result
0  GNANSARR-NH2 [Gly-Asn-Ala-Asn-Ser-Ala-Arg-Arg]            Ki           0.3 µM
1  GNAAKARR-NH2 [Gly-Asn-Ala-Ala-Lys-Ala-Arg-Arg]            Ki            50 µM
